Recorded log10 of IC50 values for a group of compounds are listed next.
# assayed_system: recombinant human FLAP protein (Homo sapiens)
# Construct: made in house; host or cells: Sf9 insect cells (membrane fraction, 100,000 x g pellet)
# Sequence (P20292 1-161): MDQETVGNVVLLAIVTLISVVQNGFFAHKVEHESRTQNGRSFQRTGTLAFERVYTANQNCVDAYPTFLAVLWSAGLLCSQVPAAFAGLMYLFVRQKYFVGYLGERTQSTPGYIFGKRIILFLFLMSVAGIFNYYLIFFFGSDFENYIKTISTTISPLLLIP
# assay_remarks: FLAP binding assay (Scintillation Proximity Assay, displacement of [125I]L-691,831)
# details: read-out: Human FLAP SPA Binding (IC50 nM)
Remember, log10 of IC50, in nM.

Task item: Form field: reported log10 of IC50 of Cc1nccc2c(C3(c4ccc(-c5cnc(N)nc5)cc4)CCC3)c[nH]c12 [Example 152]
Reply: 0.23

Task item: Form field: reported log10 of IC50 of COC(=O)c1c[nH]cc1C1(c2ccc(-c3cnc(N)nc3)cc2)CCC1 [Example 162]
Reply: 2.32

Task item: Form field: reported log10 of IC50 of COC(=O)c1cc(-c2cnn(C)c2)c(C2(c3ccc(-c4cnc(N)nc4)cc3)CCC2)[nH]1 [Example 176]
Reply: 2.18

Task item: Form field: reported log10 of IC50 of CC(C)C(C)(c1ccc(-c2cnc(N)nc2)cc1)c1cn(Cc2ccccn2)c2ccccc12 (stereo not drawn) [Example 28]
Reply: 0.52

Task item: Form field: reported log10 of IC50 of Nc1ncc(-c2ccc(C3(c4nc5ccccc5o4)CCC3)cn2)cn1 [Example 138]
Reply: 1.26

Task item: Form field: reported log10 of IC50 of COCCNC(=O)c1cccc2c(C3(c4ccc(-c5cnc(N)nc5)cc4)CCC3)c[nH]c12 [Example 159]
Reply: 0.28

Task item: Form field: reported log10 of IC50 of Nc1ncc(-c2ccc(C3(c4nc5ccccc5o4)CCC3)cc2)cn1 [Example 127]
Reply: 0.86

Task item: Form field: reported log10 of IC50 of Nc1ncc(-c2ccc(C3(c4c[nH]c5ccncc45)CCC3)cc2)cn1 [Example 110]
Reply: 1.94

Task item: Form field: reported log10 of IC50 of COC(=O)c1[nH]cc(Br)c1C1(c2ccc(-c3cnc(N)nc3)cc2)CCC1 [Example 174]
Reply: 1.23

Task item: Form field: reported log10 of IC50 of CC(C)C(C)(c1ccc(-c2cnc(N)nc2)cc1)c1nc(-c2cccnc2)no1 (stereo not drawn) [Example 101]
Reply: 1.08

Task item: Form field: reported log10 of IC50 of CC(C)C(C)(c1ccc(-c2cnc(N)nc2)cc1)c1c[nH]c2c(C(=O)N(C)CCO)cccc12 (stereo not drawn) [Example 99]
Reply: -0.03

Task item: Form field: reported log10 of IC50 of Cn1c(C2(c3ccc(-c4cnc(N)nc4)cc3)CCC2)nc2ccccc21 [Example 136]
Reply: 2.28

Task item: Form field: reported log10 of IC50 of CC(C)C(C)(c1ccc(-c2cnc(N)nc2)cc1)c1c[nH]c2cc(S(C)(=O)=O)ccc12 (stereo not drawn) [Example 85]
Reply: -0.01

Task item: Form field: reported log10 of IC50 of CC(C)C(C)(c1ccc(-c2cnc(N)nc2)cc1)c1cn(Cc2nnn[nH]2)c2ccccc12 (stereo not drawn) [Example 73]
Reply: 0.11

Task item: Form field: reported log10 of IC50 of CC(C)C(C)(c1ccc(-c2cnc(N)nc2)cc1)c1nc(N2CCNCC2)no1 (stereo not drawn) [Example 21, formic acid]
Reply: 1.58

Task item: Form field: reported log10 of IC50 of Cc1ccc(-c2cc(C3(c4ccc(-c5cnc(N)nc5)cc4)CCC3)no2)cn1 [Example 158]
Reply: 0.72

Task item: Form field: reported log10 of IC50 of CN(CCO)C(=O)Cn1cc(C2(c3ccc(-c4cnc(N)nc4)cc3)CCC2)c2ccccc21 [Example 132]
Reply: 0.86

Task item: Form field: reported log10 of IC50 of CN(C)C(=O)Cn1cc(-c2cc([C@](C)(c3ccc(-c4cnc(N)nc4)cc3)C3CC3)no2)cn1 [Example 198]
Reply: 2.54

Task item: Form field: reported log10 of IC50 of CN(CCO)C(=O)c1ccc2[nH]cc(C3(c4ccc(-c5cnc(N)nc5)cc4)CCC3)c2c1 [Example 105]
Reply: 1.96

Task item: Form field: reported log10 of IC50 of COc1nccc2c(C3(c4ccc(-c5cnc(N)nc5)cc4)CCC3)c[nH]c12 [Example 145]
Reply: 0.23

Task item: Form field: reported log10 of IC50 of CC(c1ccc(-c2cnc(N)nc2)cc1)(c1cc(O)n(-c2ccccc2)n1)C1CC1 (stereo not drawn) [Example 175]
Reply: 1.00

Task item: Form field: reported log10 of IC50 of Nc1ncc(-c2ccc(C3(c4cn(CC(=O)N5CCOCC5)c5ccccc45)CCC3)cc2)cn1 [Example 148]
Reply: 0.95

Reference source for all entries: patent US9174980B2
